- Test system: Fibroblast
- experimental-protocol: Incucyte cell viability with human fibroblast; note: unitless GR value; below 1 slowed growth and below 0 cell loss
- Assay type: toxicity, cell-based
- conditions-used: 12 h, 10 µM, compound concentration 10 uM, replicate number 2
Label yes (1) when Growth Rate is at or above 0.3; anything below gets no (0).

Reference set, count: 4
# smiles, assigned-category
data = [
    ("Cc1cc(SCc2sc(-c3ccc(C(F)(F)F)cc3)nc2C)ccc1OCC(=O)O", "yes (1)"),
    ("O=C([O-])c1cc2cc(Cc3cccnc3)ccc2o1.[Na+]", "yes (1)"),
    ("CC1(C)C(=O)N([C@H]2CCc3c(O)cccc32)c2nc(Nc3cccc(CN4CCCC4)c3)ncc21", "no (0)"),
    ("Cn1cc(-c2ccc(N(C(=O)NCc3ccccc3)[C@H]3CC[C@H](Nc4ccc(C#N)cn4)CC3)cc2)ccc1=O", "no (0)"),
]

Hello, I need to know if COc1ccc(OC(=O)N(CC(=O)O)Cc2ccc(OCCc3nc(-c4ccccc4)oc3C)cc2)cc1 has measured Growth Rate not below 0.3. Thanks! yes (1)

Hello, I need to know if Cc1nc2ccc(Oc3ccc(F)cc3)cc2c(=O)n1C[C@H]1CCCN(C(C)C)C1.Cl has measured Growth Rate not below 0.3. Thanks! yes (1)

Hello, I need to know if CCCc1c(OCCCOc2ccc(OCC(=O)O)cc2)ccc(C(C)=O)c1O has measured Growth Rate not below 0.3. Thanks! yes (1)

====

- Tested on: HEK-293T
- experimental-protocol: Incucyte cell viability with HEK293T; note: unitless GR value; below 1 slowed growth and below 0 cell loss
- Assay type: toxicity, cell-based
- conditions-used: human, 18 h, 10 µM, compound concentration 10 uM, replicate number 1
measure: Growth Rate

The cases that follow already have their Growth Rate on record.
# smiles, measured-target, Growth Rate
rows = [
    ("C=CC(=O)Nc1cccc(C)c1Nc1ncc2cc(-c3c(Cl)c(OC)cc(OC)c3Cl)ccc2n1", "HEK-293T", -0.32),
    ("CCc1cncnc1N1CCN(Cc2nc3cc(C(F)(F)F)ccc3[nH]2)CC1", "HEK-293T", 0.65),
]

Supply recorded Growth Rate for CCN1C(=O)/C(=C(\NC2CCN(C)CC2)c2ccc3c(c2)OCO3)c2cc(C(C)=O)ccc21 here. 0.63

====

- Test system: HEK-293T
- experimental-protocol: Incucyte cell viability with HEK293T; note: unitless GR value; below 1 slowed growth and below 0 cell loss
- Assay type: toxicity, cell-based
- conditions-used: human, 12 h, 10 µM, compound concentration 10 uM, replicate number 1
Growth Rate for assorted compounds
Answer as a number with no unit attached.

The cases that follow already have their Growth Rate on record.
# compound, measured-target, Growth Rate
measured = [
    ("CC(Oc1cc(-c2cnn(C3CCNCC3)c2)cnc1N)c1c(Cl)ccc(F)c1Cl (stereo not drawn)", "HEK-293T", -0.78),
    ("CC(C)(O)[C@H](F)CN1Cc2cc(NC(=O)c3cnn4cccnc34)c(N3CCOCC3)cc2C1=O", "HEK-293T", 1),
]

Proceed to the following item.
Supply recorded Growth Rate for OC(c1ccc(-c2ccc(CN3CCN(Cc4ccncc4)CC3)cc2)c(F)c1)(C(F)(F)F)C(F)(F)F here. -0.03

====

Growth Rate for assorted compounds
- System: HEK-293T
- experimental-protocol: Incucyte cell viability with HEK293T; note: unitless GR value; below 1 slowed growth and below 0 cell loss
- Format: toxicity, cell-based
- conditions-used: human, 6 h, 10 µM, compound concentration 10 uM, replicate number 1
Answer as a number with no unit attached.

The cases that follow already have their Growth Rate on record.
# compound, measured-target, measure, assay-result
data = [
    ("C=CC(=O)Nc1cc(-c2nn(C3CCC(N4CCN(C(C)=O)CC4)CC3)c3ncnc(N)c23)ccc1Oc1ccccc1 (centres undefined)", "HEK-293T", "Growth Rate", -0.71),
    ("CC(=O)N1CCN([C@H]2CCC[C@@H](NC(=O)c3cc4c(F)ccc(C)c4[nH]3)C2)CC1.O=C(O)C(F)(F)F", "HEK-293T", "Growth Rate", 0.9),
]

Supply recorded Growth Rate for CC1(C)CCC(CN2CCN(c3ccc(C(=O)NS(=O)(=O)c4ccc(NCC5CCOCC5)c([N+](=O)[O-])c4)c(Oc4cnc5[nH]ccc5c4)c3)CC2)=C(c2ccc(Cl)cc2)C1 [VENETOCLAX] here. 0.01

Supply recorded Growth Rate for CC(C)(C)c1cnc(CSc2cnc(NC(=O)C3CCNCC3)s2)o1 [BMS-387032] here. -0.41

Supply recorded Growth Rate for Cc1cc(=O)oc2cc(NC(=O)[C@H](Cc3ccc(I)cc3)NC(=O)[C@H]3N[C@@H]4CC[C@H]3C4)ccc12.O=C(O)C(F)(F)F here. -0.02

Supply recorded Growth Rate for CCN1/C(=C/C(C)=O)Sc2ccc(OC(C)=O)cc21 here. -0.36

Supply recorded Growth Rate for COc1cc(-c2nn([C@H]3CC[C@H](N4CCN(C(C)=O)CC4)CC3)c3ncnc(N)c23)ccc1NC(=O)c1cc2ccccc2n1C here. -0.95

====

Growth Rate for assorted molecules
- Test system: HEK-293T
- experimental-protocol: Incucyte cell viability with HEK293T; note: unitless GR value; below 1 slowed growth and below 0 cell loss
- Type: toxicity, cell-based
- conditions-used: human, 12 h, 10 µM, compound concentration 10 uM, replicate number 2

The cases that follow already have their Growth Rate on record.
# molecule, measure, assay-result
data = [
    ("Cn1cc(-n2cnc3c(NCc4nc5cc(Cl)c(Cl)cc5[nH]4)nc(N4CCOCC4)nc32)cn1", "Growth Rate", -0.56),
    ("CC(C)Nc1ncnc2cc(OCc3cccc([S@@](C)(=N)=O)c3)c(Br)cc12", "Growth Rate", 0.73),
    ("CS(=O)(=O)c1ccc(-c2cnc(N)c(C(=O)Nc3ccccc3)n2)cc1", "Growth Rate", -0.14),
    ("O=C(Cc1ccccc1)Nc1nnc(N2C[C@H]3C[C@@H]2CN3c2cccnn2)s1", "Growth Rate", 0.97),
    ("COc1ccc([C@@H]2Sc3ccccc3N(CCN(C)C)C(=O)[C@@H]2OC(C)=O)cc1.Cl [DILTIAZEM HYDROCHLORIDE]", "Growth Rate", 0.55),
]

Supply recorded Growth Rate for COc1ccccc1-c1cc(Nc2cccc(CS(N)(=O)=O)c2)ncn1 here. -0.15

Supply recorded Growth Rate for COc1cccc(-c2c(C)c(Cc3c(F)cccc3C(F)(F)F)c3n(c2=O)[C@@H]([C@@H](N)c2ccccc2)CS3)c1F here. 0.52

Supply recorded Growth Rate for CN(C(=O)c1ccccc1)c1ccc2c(c1)nc(NC(=O)c1ccc(Br)s1)n2CCC(N)=O here. 0.26

Supply recorded Growth Rate for Cc1c(-c2cc(-c3ccccc3Cl)no2)cnn1C1CCNCC1.Cl here. -0.43

Supply recorded Growth Rate for c1cc(-c2cnn3cc(-c4ccc(N5CCNCC5)cc4)cnc23)c2cccnc2c1 here. -0.77

Supply recorded Growth Rate for CCN(CC)C(=O)C1CN2CCc3cc(OC)c(OC)cc3C2CC1OC(C)=O (stereo unspecified) [BENZQUINAMIDE] here. 0.59

Supply recorded Growth Rate for CCOC(=O)C1Cc2ccccc2CN1C(=O)c1ccc(SC)s1 (stereo unspecified) here. 0.49

Supply recorded Growth Rate for N#Cc1ccnc(Nc2cc(C3CCN(C4COC4)CC3)cc(N3CCC(F)(F)C3)n2)c1 here. -0.54

Supply recorded Growth Rate for COc1cc(F)ccc1-c1ncnc(Nc2cccc(C[S@](C)(=N)=O)c2)n1 here. -0.56

Supply recorded Growth Rate for COc1cc2c(NC3CCN(C(C)C)CC3)nc(C3CCCCC3)nc2cc1OCCCN1CCCC1 here. -0.45

====

- Test system: Fibroblast
- experimental-protocol: Incucyte cell viability with human fibroblast; note: unitless GR value; below 1 slowed growth and below 0 cell loss
- Format: toxicity, cell-based
- conditions-used: 24 h, 10 µM, compound concentration 10 uM, replicate number 2
Label 1 (yes) when Growth Rate is at or above 0.8; anything below gets 0 (no).

Reference set, count: 6
# smiles, measured-target, assigned-category
measured = [
    ("Fc1ccc(-c2c3cccc(C(F)(F)F)c3nn2Cc2ccc(F)cc2Cl)cc1", "Fibroblast", "0 (no)"),
    ("[2H]C([2H])([2H])NC(=O)c1nnc(NC(=O)C2CC2)cc1Nc1cccc(-c2ncn(C)n2)c1OC", "Fibroblast", "1 (yes)"),
    ("COc1ncc(-c2cc(-c3ncc(CN4C[C@@H](C)O[C@@H](C)C4)o3)c3cn[nH]c3c2)cc1NS(C)(=O)=O", "Fibroblast", "0 (no)"),
    ("O=C(O)C[C@H]1CC[C@H](c2ccc(NC(=O)c3nnc(Nc4ccc(F)c(F)c4)o3)cc2)CC1", "Fibroblast", "1 (yes)"),
    ("Cc1ccc(S(=O)(=O)Nc2ccc(-n3nc(C(F)(F)F)cc3C(F)(F)F)cc2)cc1", "Fibroblast", "1 (yes)"),
    ("Cc1cc(OCc2nc3ccccc3s2)ccc1NC(=O)Nc1ccc(Cl)c(Cl)c1", "Fibroblast", "1 (yes)"),
]

Hello, I need to know if CCN1C(=O)/C(=C(\NC2CCN(C)CC2)c2ccc3c(c2)OCO3)c2cc(C(C)=O)ccc21 has measured Growth Rate not below 0.8. Thanks! 0 (no)
